Below, each entry is listed alongside its reported Control of weed species after post-emergence application: AVEFA.
# System: Avena fatua (AVEFA)
# Assay Info: Post-emergence herbicidal activity, AVEFA
# Type: in vivo
# Details: 1000 g/ha, sprayed post-emergence (8 days cultivation), evaluated after 13 days, damage score 0-5
# Protocol: Seeds of a variety of test species were sown in standard soil in pots: Triticum aestivium (TRZAW), Avena fatua (AVEFA), Alopecurus myosuroides (ALOMY), Echinochloa crus-galli (ECHCG), Lolium perenne (LOLPE), and Setaria faberi (SETFA). […] After 13 days, the test was evaluated (5=total damage to plant; 0=no damage to plant).
Number, no unit, nothing else.

CCC(=O)N(C(=O)CC)c1ncc(-c2cncnc2)nc1C(F)(F)F | 2
CC(=O)N(C)c1ncc(-c2cncc(F)c2)nc1C | 3
CC(=O)N(C(C)=O)c1ncc(-c2cncc(F)c2)nc1C | 1
COCCC(=O)Nc1ncc(-c2cncc(F)c2)nc1C | 1
CC(=O)Nc1ncc(-c2cncc(F)c2)nc1C(F)(F)F | 3
CC(=O)Nc1ncc(-c2cncc(F)c2)nc1C | 2

CCC(=O)Nc1ncc(-c2cncc(F)c2)nc1C on Avena fatua (AVEFA) gives Control of weed species after post-emergence application: AVEFA = 1

COCCC(=O)N(C(=O)CCOC)c1ncc(-c2cncc(F)c2)nc1C(F)(F)F on Avena fatua (AVEFA) gives Control of weed species after post-emergence application: AVEFA = 4

CC(=O)N(C(C)=O)c1ncc(-c2cncnc2)nc1C(F)(F)F on Avena fatua (AVEFA) gives Control of weed species after post-emergence application: AVEFA = 2

CC(=O)N(C(C)=O)c1ncc(-c2cncc(F)c2)nc1C(F)(F)F on Avena fatua (AVEFA) gives Control of weed species after post-emergence application: AVEFA = 2

CCC(=O)N(C(=O)CC)c1ncc(-c2cncc(F)c2)nc1C(F)(F)F on Avena fatua (AVEFA) gives Control of weed species after post-emergence application: AVEFA = 2

###

# Test system: Setaria faberi (SETFA)
# Assay Info: Post-emergence herbicidal activity, SETFA
# Assay type: in vivo
# Details: 1000 g/ha, sprayed post-emergence (8 days cultivation), evaluated after 13 days, damage score 0-5
Below, each entry is listed alongside its reported Control of weed species after post-emergence application: SETFA.
Number, no unit, nothing else.

Below are worked cases with known answers.
CCC(=O)Nc1ncc(-c2cncc(F)c2)nc1C [Compound I2] | 4
CC(=O)N(C)c1ncc(-c2cncc(F)c2)nc1C [Compound I6] | 5
CC(=O)Nc1ncc(-c2cncc(F)c2)nc1C(F)(F)F [Compound I3] | 4
CC(=O)N(C(C)=O)c1ncc(-c2cncc(F)c2)nc1C(F)(F)F [Compound I4] | 4

Okay, next one:
// Control of weed species after post-emergence application: SETFA value for COCCC(=O)N(C(=O)CCOC)c1ncc(-c2cncc(F)c2)nc1C(F)(F)F [Compound I11] : 5

###

Below, each entry is listed alongside its reported Control of weed species after pre-emergence application: ALOMY.
# Test system: Alopecurus myosuroides (ALOMY)
# Assay Info: Pre-emergence herbicidal activity, ALOMY
# Format: in vivo
# Parameters: key: 5=total damage to plant; 0=no damage to plant
# Details: 1000 g/ha, sprayed pre-emergence, evaluated after 13 days, damage score 0-5

Below are worked cases with known answers.
CC(=O)N(C(C)=O)c1ncc(-c2cncc(F)c2)nc1C(F)(F)F | 0
COCCC(=O)Nc1ncc(-c2cncc(F)c2)nc1C | 0
CC(=O)Nc1ncc(-c2cncc(F)c2)nc1C(F)(F)F | 0
CCC(=O)Nc1ncc(-c2cncc(F)c2)nc1C | 0
CCC(=O)N(C(=O)CC)c1ncc(-c2cncnc2)nc1C(F)(F)F | 0
CC(=O)N(C)c1ncc(-c2cncc(F)c2)nc1C | 0
CC(=O)N(C(C)=O)c1ncc(-c2cncc(F)c2)nc1C | 0
CCC(=O)N(C(=O)CC)c1ncc(-c2cncc(F)c2)nc1C(F)(F)F | 0
CC(=O)N(C(C)=O)c1ncc(-c2cncnc2)nc1C(F)(F)F | 0
COCCC(=O)N(C(=O)CCOC)c1ncc(-c2cncc(F)c2)nc1C(F)(F)F | 0

Okay, next one:
// Control of weed species after pre-emergence application: ALOMY value for CC(=O)Nc1ncc(-c2cncc(F)c2)nc1C : 0
